Parameter AC50, tested on Adenosine receptor A2a (Homo sapiens), listed per item. Further: assay procedure not described here.
Sequence (P29274 whole entry): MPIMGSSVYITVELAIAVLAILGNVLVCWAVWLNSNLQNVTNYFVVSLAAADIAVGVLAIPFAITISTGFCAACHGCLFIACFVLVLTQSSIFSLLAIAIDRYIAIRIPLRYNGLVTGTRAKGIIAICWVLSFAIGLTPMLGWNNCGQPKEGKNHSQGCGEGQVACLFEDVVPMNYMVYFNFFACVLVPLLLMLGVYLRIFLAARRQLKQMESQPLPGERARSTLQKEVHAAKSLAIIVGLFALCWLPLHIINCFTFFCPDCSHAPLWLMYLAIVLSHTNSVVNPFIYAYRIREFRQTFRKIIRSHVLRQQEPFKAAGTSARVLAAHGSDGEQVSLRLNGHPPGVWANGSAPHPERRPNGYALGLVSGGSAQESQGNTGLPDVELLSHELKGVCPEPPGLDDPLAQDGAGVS

molecule="CC(C(=O)O)c1ccc2oc(-c3ccc(Cl)cc3)nc2c1 (stereo unspecified)" property_name=AC50 experimental_value="> 30 µM"
molecule=NNC(=O)c1ccncc1 property_name=AC50 experimental_value="> 30 µM"
molecule=COc1cc2[nH]c(C)c(CCN3CCN(c4ccccc4)CC3)c2cc1OC property_name=AC50 experimental_value="> 30 µM"
molecule="O=C(O)COCCN1CCN(C(c2ccccc2)c2ccc(Cl)cc2)CC1 (stereo unspecified)" property_name=AC50 experimental_value="> 30 µM"
molecule="O=C1OC(OC(=O)c2cccnc2Nc2cccc(C(F)(F)F)c2)c2ccccc21 (stereo unspecified) [TALNIFLUMATE]" property_name=AC50 experimental_value="> 30 µM"
molecule=CCC1(CCC(C)C)C(=O)NC(=O)NC1=O property_name=AC50 experimental_value="> 10 µM"
molecule="Cn1c(=O)c2c(ncn2CCOC(=O)C(C)(C)Oc2ccc(Cl)cc2)n(C)c1=O [THEOFIBRATE]" property_name=AC50 experimental_value="> 30 µM"
molecule=COc1ccc2cc(CCC(C)=O)ccc2c1 property_name=AC50 experimental_value="> 10 µM"

Quick check: AC50 of C[N+]1(C)CCC(=C(c2ccccc2)c2ccccc2)CC1 ?
> 30 µM

# input molecule: CC(C)NC[C@H](O)COc1ccc(CC(N)=O)cc1 ; wanted: its AC50
> 30 µM

Requested read-out: AC50. Entry: O=C1c2cccc3c2[C@H](CCC3)CN1[C@@H]1CN2CCC1CC2
> 30 µM
